Reported Activity values follow for various molecules
Tested on: Mus musculus
METHOD SUMMARY: Analgesic activity in ICR mouse assessed as pain threshold variation at 12.5 umol/kg, po administered as single dose measured after 90 mins by tail flick test relative to control
Format: functional
Numbers only; they are read as %.

Observe how each entry below is paired with its result.
- QUERY SMILES: "O=C(CN(c1nc(Cl)nc2[nH]cnc12)C1CC1)NCC(=O)OCc1ccccc1"
  MEASURED: 19
- QUERY SMILES: "CC(C)C[C@H](NC(=O)CN(c1nc(Cl)nc2[nH]cnc12)C1CC1)C(=O)O"
  MEASURED: 20.93
- QUERY SMILES: "CC(C)[C@H](NC(=O)CN(c1nc(Cl)nc2[nH]cnc12)C1CC1)C(=O)OCc1ccccc1"
  MEASURED: 23.59

Now for another entry.
Reported Activity of N=C(N)NCCC[C@H](NC(=O)CN(c1nc(Cl)nc2[nH]cnc12)C1CC1)C(=O)O : 18.43

The measurements presented in this section are drawn from ChEMBL document CHEMBL1152546.
